Reference source for all entries: paper PMC3910116

Target System: T1, Spy F115L (E. coli, UniProt P77754 24-161, F115L)
T1 construct: N-terminal serine from the Sumo fusion construct; the footnote says it of Spy purification in general; Spy, E. coli, mature protein; numbers count on: the mature protein; Variant of m1 found by genetic selection, remade by site-directed mutagenesis; also called super-Spy variant; source: purified; not shown: SUMO, N-terminal, cleaved (from the N-terminal serine said of Spy purification in general)
T1 sequence: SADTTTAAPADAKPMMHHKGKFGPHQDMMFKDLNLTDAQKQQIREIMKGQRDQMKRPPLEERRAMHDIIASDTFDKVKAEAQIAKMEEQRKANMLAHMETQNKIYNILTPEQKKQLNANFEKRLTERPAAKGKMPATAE
Assay Procedure: BLI; biotinylated Im7 L53A I54A immobilised on streptavidin sensors (Octet RED); Spy variants at 2, 1, 0.5, 0.25 and 0.125 µM; 25°C; 40 mM HEPES, 150 mM NaCl, pH 7.5; 1:1 binding model, KD = koff/kon; apparent
Experimental Parameters: both partners purified
Endpoint Name: Kd
Answer as a quantity: numeral, then unit.

**Q:** Field request: Kd | item: Biotinylated Im7 L53A I54A (natural protein, biotin (EZ-link NHS-biotin at 1:1 molar ratio; site not stated), N-terminal serine from the Sumo fusion construct; the footnote says it of Im7 purification in general; immunity protein 7 (Im7), colicin E7 immunity protein; Same protein as m10 with biotin; held on streptavidin sensors; also called biotin-conjugated Im7 L53A I54A; immunity protein 7 L53A I54A; source: purified from a Sumo fusion construct (Quan et al., 2011), biotinylated with EZ-link …) SMELKNSISDYTEAEFVQLLKEIEKENVAATDDVLDVLLEHFVKITEHPDGTDAAYYPSDNRDDSPEGIVKEIKEWRAANGKPGFKQG
**A:** 900 nM
